Reported logP values follow for various compounds
# run parameters: octanol/water
Reply briefly: the number, and no unit.

Worked examples follow.
structure smiles: C=C1CC[C@H](O)C/C1=C/C=C1\CCC[C@]2(C)[C@@H]([C@H](C)CCCC(C)C)CC[C@@H]12
logP: 10.24

structure smiles: CC1=C(C/C=C(\C)CCC[C@H](C)CCC[C@H](C)CCCC(C)C)C(=O)c2ccccc2C1=O
logP: 11.71

structure smiles: ClC(Cl)C(Cl)(Cl)Cl
logP: 3.627

structure smiles: C[C@@H]1O[C@@H](OC[C@H]2O[C@@H](Oc3c(-c4ccc(O)c(O)c4)oc4cc(O)cc(O)c4c3=O)[C@H](O)[C@@H](O)[C@@H]2O)[C@H](O)[C@H](O)[C@H]1O
logP: -2.02

Then there is this compound:
For the compound shown here, C=C1CC[C@H](O)C/C1=C/C=C1\CCC[C@]2(C)[C@@H]([C@H](C)/C=C/[C@H](C)C(C)C)CC[C@@H]12 , give the reported logP.
10.44

* * *

# assay: physchem
# run parameters: octanol/water
measured quantity: logP
Returns: the value as a bare number; no unit string appended.

structure smiles: CCCCCCCCl
value reported: 4.11
--
structure smiles: Clc1cc(Cl)c(Cl)cc1Cl
value reported: 4.74
--
structure smiles: Clc1ccccc1-c1ccccc1
value reported: 4.74
--
structure smiles: Cc1c2ccccc2cc2ccccc12
value reported: 5.14
--
structure smiles: Clc1cccc2ccccc12
value reported: 4.03

Turning now to a further compound:
Looking for the measured logP of CC(C)CCC[C@@H](C)[C@H]1CC[C@H]2C3=CC=C4C[C@@H](O)CC[C@]4(C)[C@H]3CC[C@]12C , can you help?
8.65

* * *

# assay: physchem
# run parameters: octanol/water
logP values for the compounds below.
Answer field: number only, no words.

Would you please look over these solved cases?
structure smiles: CCCCCCCC
logP: 4.93
//
structure smiles: C1CCCCCC1
logP: 3.91
//
structure smiles: Cc1ccc2cc3ccccc3cc2c1
logP: 5.14
//
structure smiles: Cc1ccc(C)c(C)c1
logP: 4.09
//
structure smiles: c1cc2c3c(cccc3c1)CC2
logP: 4.07

Then this compound:
Quick check: logP of Cc1ccc2ccccc2c1 ?
3.96

* * *

# assay: physchem
# run parameters: octanol/water
Documented logP across a set of compounds
Keep it simple and answer with nothing but the number.

Below are worked cases with known answers.
structure smiles: c1cc2ccc3cccc4ccc(c1)c2c34
logP: 4.95
--
structure smiles: c1ccc(CCc2ccccc2)cc1
logP: 4.89

# input for lookup
Item Clc1cc(Cl)c(Cl)c(Cl)c1 has what recorded logP?
4.99

* * *

# assay: physchem
# run parameters: octanol/water
measured quantity: logP
Reply with just the number.

Please review the following examples before continuing.
molecule: CCC(C)C
logP: 3.21
--
molecule: c1ccc2ccccc2c1
logP: 3.32
--
molecule: C1=CCCCC1 [CYCLOHEXENE]
logP: 2.81
--
molecule: C1CCCCCCC1 [CYCLOOCTANE]
logP: 4.47
--
molecule: CC(C)(CO)[C@@H](O)C(=O)NCCC(=O)O [PANTOTHENIC ACID]
logP: -1.69
--
molecule: CCCCCCCCC [NONANE]
logP: 5.46
--
molecule: CCCCCCCl
logP: 3.58

Now examine the next entry.
logP for Cc1ccc(C)c2c(C)cccc12 ?
5.26
